TARGET_SYSTEM: human αV on parental A375M cells (αVβ3 and αVβ5) (human) (UniProt P06756)
EXPERIMENTAL_DETAILS: FACS, supernatant, parental A375M cells (αVβ3 and αVβ5, no αVβ6)
I'd be grateful if you could share measured A375M % Shifted Cells for these entries.
# unit: % | format: bare number

Any idea what its A375M % Shifted Cells is? The binder is sc 277 (antibody, V domains shown) VH: EVQLVQSGAEVKKPGESLKISCKGSGYSFPSYWIGWVRQMPGKGLEWMGIIYPGDSDTRYSPSFQGQVTISADKSISTAYLQWSSLKASDTAMYYCARHPMEDGMDVWGQGTTVTVSS VL: SYELTQPPSVSVSPGQTARITCSGDALPKKYAFWYQQKSGQAPVLVIYDDNKRPSGIPERFSGSSSGTMATLTITGAQVEDEADYYCYSTDSSGHHVFGGGTKLTVL
23

Recorded A375M % Shifted Cells of sc 97 (antibody, V domains shown) VH: EVQLVQSGAEVKKPGESLKISCKGSGYSFTSYWIGWVRQMPGKGLEWMGIIYPGDSDTRYSPSFQGQVILSADKSISTAYLQWSSLKASDTAMYYCARHDESSGYYYVFDIWGQGTMVTVSS VL: SYELTQPPSVSVSPGQTARITCSGDALPKKYAYWYQQKSGQAPVLVIYEDIKRPSGIPERFSGSSSGTMATLTISGAQVEDEADYYCYSTDSSGNHWVFFGGGTKLTVL , please.
24

# lookup: A375M % Shifted Cells of sc 264 (antibody, V domains shown) VH: QVQLQESGPGLVKPSQTLSLTCTVSGGSISSGGYYWSWIRQHPGKGLEWIGYIYYSGRTYNNPSLKSRVTISVDTSKNQFSLKLSSVTAADTAVYYCARVATGRGDYHFYAMDVWGQGTTVTVSS VL: SYELTQPSSVSVSPGQTARITCSGDVLAKKSARWFHQKPGQAPVLVIYKDSERPSGIPERFSGSSSGTTVTLTISGAQVEDEAAYYCYSAADNNLVFGGGTKLTVL
46

The reported measurements were obtained from patent US20150166663A1.
